Recorded measurements of viability, T/C, one per entry
- System: 454973-116-R2-J3-PDC spheroids, viability, % test/control;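 further: spheroids exposed to compounds for seven days; 100% = DMSO vehicle control viability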
- experimentSummary: Anticancer human tumor 454973-116-R2-J3-PDC patient-derived pancreatic carcinoma cell line growth inhibition [GQUAD]
- assaySetup: second compound 0.316 µM; first compound 0.316 µM; hits give low values; spheroids with HUVEC and MSC
Answer format: numeric, % implied, no suffix.

// below: answered compounds
# compound, viability, T/C, %
rows = [
    ("O=C(NO)c1cnc(N2CCN(S(=O)(=O)c3ccc4ccccc4c3)CC2)nc1 + CN(C)c1ccc(Nc2c3ccc(NC(=O)CCN4CCCC4)cc3nc3cc(NC(=O)CCN4CCCC4)ccc23)cc1", 26.8),
    ("O=C(NO)c1cnc(N2CCN(S(=O)(=O)c3ccc4ccccc4c3)CC2)nc1 + Cc1cnc(CNC(=O)c2c(=O)c3ccc(N4CCCN(C)CC4)nc3n3c2sc2ccccc23)cn1", 23.6),
    ("CC[C@@]1(O)C(=O)OCc2c1cc1n(c2=O)Cc2cc3c(CN(C)C)c(O)ccc3nc2-1 + Cc1[nH]c2ccc(F)cc2c1-c1nc2c3cccnc3c3ncccc3c2[nH]1", 20.7),
    ("C#Cc1c(F)ccc2cc(O)cc(-c3ncc4c(N5CC6CCC(C5)N6)nc(OCC56CCCN5CC(F)C6)nc4c3F)c12 (stereo unspecified) + CN(C)c1ccc(Nc2c3ccc(NC(=O)CCN4CCCC4)cc3nc3cc(NC(=O)CCN4CCCC4)ccc23)cc1", 23),
    ("CCc1c2c(nc3ccc(O)cc13)-c1cc3c(c(=O)n1C2)COC(=O)[C@]3(O)CC + Cc1cnc(CNC(=O)c2c(=O)c3ccc(N4CCCN(C)CC4)nc3n3c2sc2ccccc23)cn1", 4.86),
]

Return the recorded viability, T/C value; entry: COc1ncnc(C2CC2)c1-c1ncc2cnn(Cc3ccc(-c4nc(C(F)(F)F)cn4C(C)C)cc3)c2n1 + Cc1cnc(CNC(=O)c2c(=O)c3ccc(N4CCCN(C)CC4)nc3n3c2sc2ccccc23)cn1 59.5

Return the recorded viability, T/C value; entry: O=C(c1cc(Cc2n[nH]c(=O)c3ccccc23)ccc1F)N1CCN(C(=O)C2CC2)CC1 + Cc1[nH]c2ccc(F)cc2c1-c1nc2c3cccnc3c3ncccc3c2[nH]1 93

Return the recorded viability, T/C value; entry: COc1ccc([C@@H](O)c2cc(-c3ncnc4cc(N5CCOCC5)ccc34)c(F)cc2Cl)nn1 + CN(C)c1ccc(Nc2c3ccc(NC(=O)CCN4CCCC4)cc3nc3cc(NC(=O)CCN4CCCC4)ccc23)cc1 89.1

Return the recorded viability, T/C value; entry: Nc1ccn(C2OC(CO)C(O)C2(F)F)c(=O)n1 (stereo unspecified) + Cc1[nH]c2ccc(F)cc2c1-c1nc2c3cccnc3c3ncccc3c2[nH]1 17.7

Return the recorded viability, T/C value; entry: CC(=O)O[C@H]1C(=O)[C@@]2(C)[C@H]([C@H](OC(=O)c3ccccc3)[C@]3(O)C[C@H](OC(=O)[C@H](O)[C@@H](NC(=O)c4ccccc4)c4ccccc4)C(C)=C1C3(C)C)[C@]1(OC(C)=O)CO[C@@H]1C[C@@H]2O + CN(C)c1ccc(Nc2c3ccc(NC(=O)CCN4CCCC4)cc3nc3cc(NC(=O)CCN4CCCC4)ccc23)cc1 8.64

Return the recorded viability, T/C value; entry: Cn1ncnc1[C@H]1c2n[nH]c(=O)c3cc(F)cc(c23)N[C@@H]1c1ccc(F)cc1 + Cc1[nH]c2ccc(F)cc2c1-c1nc2c3cccnc3c3ncccc3c2[nH]1 83.8

Return the recorded viability, T/C value; entry: C=CC(=O)N1CCN(c2nc(=O)n(-c3c(C)ccnc3C(C)C)c3nc(-c4c(O)cccc4F)c(F)cc23)C(C)C1 (stereo unspecified) + CN(C)c1ccc(Nc2c3ccc(NC(=O)CCN4CCCC4)cc3nc3cc(NC(=O)CCN4CCCC4)ccc23)cc1 103

Return the recorded viability, T/C value; entry: CC1COCCN1c1cc(-c2ccnn2C)c2ccnc(-c3ccn[nH]3)c2n1 (stereo unspecified) + Cc1cnc(CNC(=O)c2c(=O)c3ccc(N4CCCN(C)CC4)nc3n3c2sc2ccccc23)cn1 18.6
